tested on: SF-268 CNS; assay: NCI tumour cell line growth inhibition, 48 h; in the data active = GI50 below about 0.43 µM; inactive = the rest
Assign a class; possible classes are active, inactive

GET /call?item= `O=C1Nc2cc(-c3cccc(O)c3)ccc2/C1=C/c1ccc[nH]1` returns the recorded outcome of this test.
inactive

Dear colleague, could you share the recorded outcome for `COc1cccc(/C=C/c2nc3c(cnn3-c3ccccc3)c(=O)[nH]2)c1` when you have a moment?
inactive

Which outcome was entered for the molecule `O=[N+]([O-])c1cccc(-c2nc(-c3ccc(Cl)cc3Cl)cn2-c2ccccc2)c1` in this test?
inactive

Hi, sorry to bother you, what did the test record for `CCCOc1cc2ccccc2cc1C(=O)Nc1nc(NC)c2c(ccc3nccc32)[nH]1` ?
inactive

I'd appreciate the recorded outcome for COc1ccc(C(C)c2cc(OC)c(OC)c(OC)c2)cc1 (stereo unspecified) from this test.
inactive

Please share the test call associated with `Cc1cc(-c2nnc(/C=C/c3ccc4c(c3)OCO4)o2)n[nH]1` .
inactive

Check the results log: what was the call for `CN(C)C(=O)OCc1nc2c(N3CCOCC3)nc(-c3ccccc3)nc2n1C` ?
inactive

Query: recorded result category for C[N+](C)(C)CC1CCC(C[N+](C)(C)C)C1=O (stereo unspecified) in this test
inactive

Recorded test outcome, item `O=C1/C=C/[C@@H](O)[C@@H]2C[C@@H](O)C[C@H]2/C=C/CCC[C@H](CCc2ccc3ncccc3c2)O1`
active

Look up the recorded call for `CCOC(=O)Nc1nc2ccccc2[nH]1` in this test.
inactive

For `CC(C)(C)OC(=O)NCCCCn1c2c(c3ccccc3c1=O)C(=O)c1ccccc1-2` , which call appears in the assay record?
inactive
